Every entry's value here was drawn from PubChem BioAssay (NCI).

System: COLO 205 colon
Experiment: NCI-60 one-dose screen, 48 h
Conditions: 10 µM unless noted
About 83,000 compounds went through this panel and 20% of them were active in at least one assay; those are over-represented in the sample as a whole. Activity calls are given as the source filed them. The calls were made as follows: active = growth percent below 10; inactive = the rest.
Pick one: True (active), False (inactive)

INSERT INTO measurements (molecule, category_label) VALUES
  ('C[C@]12CCc3sc(Nc4ccc(F)cc4)nc3C1=CC[C@@H]1[C@@H]2CC[C@]2(C)C(=O)CC[C@@H]12', 'False'),
  ('CC1(C)S[C@H]2CC[C@H]3OC(=O)[C@@H]1N23', 'False'),
  ('C[C@]12CC[C@H]3[C@@H](CC=C4c5nc(-c6ccc(Br)cc6)sc5CC[C@@]43C)[C@@H]1CC[C@@H]2O', 'False'),
  ('O=CC1(c2ccccc2)CCN(Cc2ccccc2)CC1', 'False'),
  ('C/C=C(/C)C(=O)O[C@H]1CC[C@@]2(C)[C@@H]3CC[C@H]4[C@]5(O)C[C@H](O)[C@@]6(O)[C@@H](CN7C[C@@H](C)CC[C@H]7[C@@]6(C)O)[C@]5(O)C[C@@]42O[C@@]13O', 'False');

input: Dear colleague, could you share the recorded outcome for N#CCCc1ccccc1 when you have a moment?
output: False

input: How did this test come out for CC[C@H](C)[C@H](NC(=O)C12CC(NC)(C1)C2)C(=O)N(C)[C@H](C[C@@H](OC(C)=O)c1nc(C(=O)N[C@@H](Cc2ccccc2)C[C@H](C)C(=O)OC)cs1)C(C)C ?
output: True

input: Name the outcome recorded for COC12CC3C4=CCOC5CC(=O)N6c7ccccc7C1(CCN2C4)C6C53 (stereo not drawn) in the assay.
output: False

====

System: UACC-62 melanoma
Test: NCI-60 one-dose screen, 48 h
Conditions: 10 µM unless noted
The panel holds about 83,000 compounds, 20% with a hit somewhere; the sample as a whole holds those more often. Activity calls are given as the source filed them. How the source made its calls: active means growth percent below 10; inactive means the rest.
Mark one answer only. Choices: active, inactive

Example cases with answers are listed next.
INSERT INTO measurements (compound, category_label) VALUES
  ('C/C(=C\c1ccn(-c2ccc(N)c(C(F)(F)F)c2)n1)[C@@H]1C[C@@H]2O[C@]2(C)CCC[C@H](C)[C@H](O)[C@@H](C)C(=O)C(C)(C)[C@@H](O)CC(=O)O1', 'inactive'),
  ('O=NN(c1ccccc1)c1ccccc1', 'inactive'),
  ('CC12CCC3C4CCC(=O)C=C4CCC3C1CC1CC(=O)OC12 (stereo not drawn)', 'inactive');

input: I'd appreciate the recorded outcome for CC1OC(=O)C(C(C)C)NC(=O)C(C(C)C)OC(=O)C(C(C)C)NC(=O)C(C)OC(=O)C(C(C)C)NC(=O)C(C(C)C)OC(=O)C(C(C)C)NC(=O)C(C)OC(=O)C(C(C)C)NC(=O)C(C(C)C)OC(=O)C(C(C)C)NC1=O (stereo not drawn) from this test.
output: active

input: Given COC(=O)C12C3C4C1C1C2C3C41NC(=O)c1csc([C@@H](C[C@H](C(C)C)N(C)C(=O)[C@@H](NC(=O)[C@H]2CCCCN2C)C2CC2)OC(C)=O)n1 (stereo partly drawn) , state the outcome it received in this test.
output: inactive

input: Please let me know the test result on file for CC[C@H](C)[C@H](NC(=O)[C@H]1CCCCN1C)C(=O)N(C)[C@H](CCc1nc(C(=O)N[C@@H](Cc2ccccc2)C[C@H](C)C(=O)O)cs1)C(C)C .
output: inactive

input: # outcome recorded in this test, key = Cc1cc2c(cc1-c1ccnc(/C=C/C(=O)O)c1)C(C)(C)CCC2(C)C
output: inactive

input: Hi, do you know how Oc1cc(Cl)ccc1Oc1ccc(Cl)cc1Cl came out in this test?
output: inactive

====

System: NCI-H322M lung
Assay: NCI-60 one-dose screen, 48 h (100 = growth as untreated, 0 = no growth, -100 = all killed)
Details: 10 µM unless noted
About 83,000 compounds went through this panel and 20% of them were active in at least one assay; those are over-represented in the sample as a whole.
RESULT_TYPE: growth (%)
Write the number in % without appending the unit.

INSERT INTO measurements (compound_smiles, measured_target, result_type, quantitative_result) VALUES
  ('COC(=O)CCP(CCC(=O)OC)c1ccccc1', 'NCI-H322M lung', 'growth', 107);

// assay NCI-H322M lung, entry Cn1cc(-c2csc(-c3cn(CCCCN4CCOCC4)c4ccc(F)cc34)n2)c2cccnc21 , growth value = 84.3

CC[C@H](C)[C@H](NC(=O)[C@H]1CCCCN1C)C(=O)N(C)[C@H](C[C@@H](OC(C)=O)c1nc(C(=O)N[C@@H](Cc2ccccc2)C[C@H](C)C(=O)O)cs1)C(C)C tested on NCI-H322M lung gave growth: 51.5

Form field, growth with NCI-H322M lung, item CCOC(=O)P(=O)(OCC)OCC : 82.6

Entry Oc1ccccc1C=NCCN=Cc1ccccc1O.[Fe] , tested on NCI-H322M lung, has a reported growth of 111

====

Tested on: HCT-116 colon
Assay: NCI-60 one-dose screen, 48 h
Conditions: 10 µM unless noted
About 83,000 compounds went through this panel and 20% of them were active in at least one assay; those are over-represented in the sample as a whole. The source made the active and inactive calls. The calls were made as follows: active = growth percent below 10; inactive = the rest.
Field 'call' accepts active, inactive

input: Outcome? CCCCCCCCCCCCCCCCCC1OCC(COC(=O)O[C@@H](C(=O)O[C@H]2C[C@@]3(O)[C@@H](OC(=O)c4ccccc4)[C@@H]4[C@]5(OC(C)=O)CO[C@@H]5C[C@H](O)[C@@]4(C)C(=O)[C@H](OC(C)=O)C(=C2C)C3(C)C)[C@@H](NC(=O)c2ccccc2)c2ccccc2)O1 (stereo partly drawn)
output: inactive

input: Recorded test call requested for Oc1ccccc1C=NCCN=Cc1ccccc1O
output: inactive

input: Kindly provide the recorded test outcome for the following molecule: CC(Oc1ccc(-c2ccccc2)cc1)C(=O)O (stereo not drawn)
output: inactive

input: Assay outcome for N#CC(C#N)=C(C#N)C#N : what was it?
output: inactive

input: Could you check what this test reported for COc1ccn(C)c(=O)c1C#N ?
output: inactive

input: What was the test verdict on CC1(C)N=C(N)N=C(N)N1c1ccc(CCC(=O)Nc2ccc(S(=O)(=O)F)cc2)cc1 ?
output: inactive

input: Assay outcome for NC1CN2CCC1CC2 (stereo not drawn) : what was it?
output: inactive

input: Any idea what this test logged for Cc1c(C)c(N)c(C)c(C)c1N ?
output: inactive

input: Give the logged outcome of this assay for the following molecule: COCC1OC2OC3C(COC)OC(OC4C(COC)OC(OC5C(COC)OC(OC6C(COC)OC(OC7C(COC)OC(OC8C(COC)OC(OC1C(O)C2O)C(O)C8O)C(O)C7O)C(O)C6O)C(O)C5O)C(O)C4O)C(O)C3O (stereo not drawn) (tested in a mixture with another compound)
output: inactive

input: Lab log entry: O=C1CN2CCC1CC2 — outcome as called in the assay?
output: inactive

input: Give the logged outcome of this assay for the following molecule: CC1(C)CN=C(NN=C(/C=C/c2ccc(C(F)(F)F)cc2)/C=C/c2ccc(C(F)(F)F)cc2)NC1
output: active

input: Hello, I am checking results. What call was entered for COC[C@H]1OC(=O)c2coc3c2[C@@]1(C)C1=C(C3=O)[C@@H]2CCC(=O)[C@@]2(C)C[C@H]1OC(C)=O ?
output: inactive

input: Can you look up the reported call for CSc1cc(/C=C(\C)[C@@H]2C[C@@H]3O[C@]3(C)CCC[C@H](C)[C@H](O)[C@@H](C)C(=O)C(C)(C)[C@@H](O)CC(=O)O2)n(CCNC(=O)OC(C)(C)C)n1 for me?
output: inactive

input: For this molecule, state the assay outcome: O=C(NC1=NCC[Se]1)c1ccccc1O
output: inactive

====

Test system: OVCAR-4 ovarian
Experiment: NCI-60 one-dose screen, 48 h (100 = growth as untreated, 0 = no growth, -100 = all killed)
Conditions: 10 µM unless noted
About 83,000 compounds went through this panel and 20% of them were active in at least one assay; those are over-represented in the sample as a whole.
Listing of recorded growth by entry.
Use % as the unit, but write only the number.

Check out these entries, answers already filled in.
INSERT INTO measurements (compound_smiles, quantitative_result) VALUES
  ('CN(C)c1ccc(C=C2C(=O)NC(=O)NC2=O)cc1', 116),
  ('COC(=O)[C@@H](C)C[C@H](Cc1ccccc1)NC(=O)c1cccc([C@@H](C[C@H](C(C)C)N(C)C(=O)[C@@H](NC(=O)[C@H]2CCCCN2C)C2CC2)OC(C)=O)n1', 52),
  ('O=C/C=C/c1ccco1', 105);

--- query ---
The recorded growth for entry CC[C@H](C)[C@H](NC(=O)[C@H]1CCCCN1C)C(=O)N(C)[C@H](C(=O)NC12CC(C(=O)N[C@@H](Cc3ccccc3)C[C@H](C)C(=O)OC)(C1)C2)C(C)C equals 90.8
